Recorded pIC50 by entry
# Measured Target: human PTPN1 (1-435) (Homo sapiens (Human))
pIC50: −log10 of the molar value.

Compound: N#CCCNC(=O)c1cc(OCCCS(N)(=O)=O)c2sc(C(F)(F)P(=O)(O)O)c(Br)c2c1 [Compound 328]
pIC50: 8.10
//
Compound: O=C(NCc1c[nH]nn1)c1cc(O)c2sc(C(F)(F)P(=O)(O)O)c(Br)c2c1 [Compound 167]
pIC50: 5.45
//
Compound: NC(=O)c1cc(OCCOCC(F)(F)F)c2sc(C(F)(F)P(=O)(O)O)c(Br)c2c1 [Compound 237]
pIC50: 6.26
//
Compound: NC(=O)c1cc(OCc2ccc(C(F)(F)F)cc2C(F)(F)F)c2sc(C(F)(F)P(=O)(O)O)c(Br)c2c1 [Compound 340]
pIC50: 6.55

* * *

Entries below carry reported IC50 on human PTPN2 (1-387) (Homo sapiens (Human)).
Sequence (P17706 other isoform, or with tags, fused parts or gaps): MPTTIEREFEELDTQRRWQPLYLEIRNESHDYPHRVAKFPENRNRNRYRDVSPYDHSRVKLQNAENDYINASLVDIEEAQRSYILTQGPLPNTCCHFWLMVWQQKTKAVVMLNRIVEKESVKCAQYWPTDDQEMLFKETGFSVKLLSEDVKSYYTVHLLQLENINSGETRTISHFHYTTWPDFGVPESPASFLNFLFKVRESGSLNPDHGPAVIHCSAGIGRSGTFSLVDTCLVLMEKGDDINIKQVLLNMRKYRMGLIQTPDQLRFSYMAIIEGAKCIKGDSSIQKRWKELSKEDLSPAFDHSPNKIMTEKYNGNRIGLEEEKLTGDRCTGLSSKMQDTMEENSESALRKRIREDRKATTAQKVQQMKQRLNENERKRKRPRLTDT

Compound: O=C(Nc1cccc(F)c1)c1ccc2sc(C(F)(F)P(=O)(O)O)c(Br)c2c1
Measured Target: human PTPN2 (1-387) (Homo sapiens (Human))
Output Unit: µM
IC50: 1.86
--
Compound: C[C@@H](NC(=O)c1ccc2sc(C(F)(F)P(=O)(O)O)c(Br)c2c1)c1cccnn1
Measured Target: human PTPN2 (1-387) (Homo sapiens (Human))
Output Unit: µM
IC50: 1.22
--
Compound: O=C(NC1(c2cccc(F)c2)CCCC1)c1ccc2sc(C(F)(F)P(=O)(O)O)c(Br)c2c1
Measured Target: human PTPN2 (1-387) (Homo sapiens (Human))
Output Unit: µM
IC50: 2.6
--
Compound: O=C(NCc1cnsn1)c1ccc2sc(C(F)(F)P(=O)(O)O)c(Br)c2c1
Measured Target: human PTPN2 (1-387) (Homo sapiens (Human))
Output Unit: µM
IC50: 1.41
--
Compound: NC(=O)c1cc(OCc2ccc(-c3nccs3)cc2)c2sc(C(F)(F)P(=O)(O)O)c(Br)c2c1
Measured Target: human PTPN2 (1-387) (Homo sapiens (Human))
Output Unit: µM
IC50: 0.0096
--
Compound: COCC(NC(=O)c1ccc2sc(C(F)(F)P(=O)(O)O)c(Br)c2c1)c1ccc(F)cc1 (stereo not shown)
Measured Target: human PTPN2 (1-387) (Homo sapiens (Human))
Output Unit: µM
IC50: 2.91
--
Compound: CCc1noc(CNC(=O)c2ccc3sc(C(F)(F)P(=O)(O)O)c(Br)c3c2)n1
Measured Target: human PTPN2 (1-387) (Homo sapiens (Human))
Output Unit: µM
IC50: 3.54
--
Compound: N#CCCNC(=O)c1ccc2sc(C(F)(F)P(=O)(O)O)c(C#N)c2c1
Measured Target: human PTPN2 (1-387) (Homo sapiens (Human))
Output Unit: µM
IC50: 4.64
--
Compound: Cc1cnc(F)c(CNC(=O)c2ccc3sc(C(F)(F)P(=O)(O)O)c(Br)c3c2)c1
Measured Target: human PTPN2 (1-387) (Homo sapiens (Human))
Output Unit: µM
IC50: 2
--
Compound: C[C@H](NC(=O)c1ccc2sc(C(F)(F)P(=O)(O)O)c(Br)c2c1)c1ccccn1
Measured Target: human PTPN2 (1-387) (Homo sapiens (Human))
Output Unit: µM
IC50: 5.2
--
Compound: CS(=O)(=O)c1ccc(COc2cc(C(N)=O)cc3c(Br)c(C(F)(F)P(=O)(O)O)sc23)cn1
Measured Target: human PTPN2 (1-387) (Homo sapiens (Human))
Output Unit: µM
IC50: 0.00398
--
Compound: CC(C)OCCNC(=O)c1ccc2sc(C(F)(F)P(=O)(O)O)c(Br)c2c1
Measured Target: human PTPN2 (1-387) (Homo sapiens (Human))
Output Unit: µM
IC50: 2.53
--
Compound: NC(=O)c1cc(OC[C@@H]2CC[C@H]2C(F)(F)F)c2sc(C(F)(F)P(=O)(O)O)c(Br)c2c1
Measured Target: human PTPN2 (1-387) (Homo sapiens (Human))
Output Unit: µM
IC50: 0.231
--
Compound: CNC(=O)c1cc(OCc2ccc(S(C)(=O)=O)cc2)c2sc(C(F)(F)P(=O)(O)O)c(Br)c2c1
Measured Target: human PTPN2 (1-387) (Homo sapiens (Human))
Output Unit: µM
IC50: 0.0026
--
Compound: CS(=N)(=O)Cc1cc(OCCCC(F)(F)F)c2sc(C(F)(F)P(=O)(O)O)c(Br)c2c1 (stereo not shown)
Measured Target: human PTPN2 (1-387) (Homo sapiens (Human))
Output Unit: µM
IC50: 0.359
--
Compound: COc1ccc(CCC(C)NC(=O)c2ccc3sc(C(F)(F)P(=O)(O)O)c(Br)c3c2)cc1 (stereo not shown)
Measured Target: human PTPN2 (1-387) (Homo sapiens (Human))
Output Unit: µM
IC50: 3.3

* * *

# Measured Target: human PTPN1 (1-435) (Homo sapiens (Human), UniProt P18031)
# Sequence (P18031 whole entry): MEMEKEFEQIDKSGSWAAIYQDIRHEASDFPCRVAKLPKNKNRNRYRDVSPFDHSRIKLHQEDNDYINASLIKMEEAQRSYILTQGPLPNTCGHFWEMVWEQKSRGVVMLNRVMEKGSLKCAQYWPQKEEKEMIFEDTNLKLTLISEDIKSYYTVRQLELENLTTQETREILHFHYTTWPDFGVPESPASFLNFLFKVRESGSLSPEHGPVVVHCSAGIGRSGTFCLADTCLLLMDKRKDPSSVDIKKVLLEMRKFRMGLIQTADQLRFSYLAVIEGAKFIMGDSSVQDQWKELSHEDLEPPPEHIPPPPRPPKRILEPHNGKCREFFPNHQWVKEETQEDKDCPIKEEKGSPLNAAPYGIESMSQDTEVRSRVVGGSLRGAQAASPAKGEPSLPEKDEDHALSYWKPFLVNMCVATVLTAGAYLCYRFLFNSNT
pIC50: −log10 of the molar value.
Returns Y if the recorded pIC50 is greater than or equal to 7, and N otherwise.

Compound: Cc1ccc(CNC(=O)c2ccc3sc(C(F)(F)P(=O)(O)O)c(Br)c3c2)nn1
Label Class: N
//
Compound: C[C@@H](NC(=O)c1ccc2sc(C(F)(F)P(=O)(O)O)c(Br)c2c1)c1cccnc1
Label Class: N
//
Compound: NC(=O)c1cc(OCCCC2(S(N)(=O)=O)CC2)c2sc(C(F)(F)P(=O)(O)O)c(Br)c2c1
Label Class: Y
//
Compound: N#Cc1c(C(F)(F)P(=O)(O)O)sc2c(OCCCC(F)(F)F)cc(C(N)=O)cc12
Label Class: Y
//
Compound: CNC(=O)c1cc(OCCCS(N)(=O)=O)c2sc(C(F)(F)P(=O)(O)O)c(Br)c2c1
Label Class: Y
//
Compound: O=C(N[C@@H]1CCC[C@H]1OCc1ccccc1)c1ccc2sc(C(F)(F)P(=O)(O)O)c(Br)c2c1
Label Class: N
//
Compound: CC(NC(=O)c1ccc2sc(C(F)(F)P(=O)(O)O)c(Br)c2c1)c1ccccc1-n1cccn1 (stereo not shown)
Label Class: N
//
Compound: CS(=O)(=O)CCCOc1cc(C(N)=O)cc2c(C(F)F)c(C(F)(F)P(=O)(O)O)sc12
Label Class: Y
//
Compound: O=C(Nc1ccc2c(Br)c(C(F)(F)P(=O)(O)O)sc2c1)c1ccccc1
Label Class: N
//
Compound: C[C@@H](NC(=O)c1ccc2sc(C(F)(F)P(=O)(O)O)c(Br)c2c1)c1cccnn1
Label Class: N
//
Compound: CS(=O)(=O)CCCOc1cc(C(N)=O)cc2c(Br)c(C(F)(F)P(=O)(O)O)sc12
Label Class: Y
//
Compound: O=C(NCc1n[nH]c(=O)[nH]1)c1ccc2sc(C(F)(F)P(=O)(O)O)c(Br)c2c1
Label Class: N
//
Compound: NC(=O)c1cc(OCC(F)CC(F)(F)F)c2sc(C(F)(F)P(=O)(O)O)c(Br)c2c1 (stereo not shown)
Label Class: Y
//
Compound: CC1(C)CC(COc2cc(C(N)=O)cc3c(Br)c(C(F)(F)P(=O)(O)O)sc23)C1
Label Class: Y
//
Compound: O=C(NCCc1c[nH]c2ccc(F)cc12)c1ccc2sc(C(F)(F)P(=O)(O)O)c(Br)c2c1
Label Class: N
//
Compound: O=C(NC1CCS(=O)(=O)CC1)c1ccc2sc(C(F)(F)P(=O)(O)O)c(Br)c2c1
Label Class: N
//
Compound: C[C@@H](NC(=O)c1ccc2sc(C(F)(F)P(=O)(O)O)c(Br)c2c1)c1ncc(F)cn1
Label Class: N
//
Compound: C[C@@H](NC(=O)c1ccc2sc(C(F)(F)P(=O)(O)O)c(C#N)c2c1)c1cccnn1
Label Class: N
//
Compound: Cc1c[nH]c(CNC(=O)c2ccc3sc(C(F)(F)P(=O)(O)O)c(Br)c3c2)n1
Label Class: N
//
Compound: CC(NC(=O)c1ccc2sc(C(F)(F)P(=O)(O)O)c(Br)c2c1)c1ccon1 (stereo not shown)
Label Class: N
//
Compound: O=C(Nc1cccnc1Oc1ccccc1)c1ccc2sc(C(F)(F)P(=O)(O)O)c(Br)c2c1
Label Class: N
//
Compound: NC(=O)c1cc(OC[C@H]2C[C@H](S(N)(=O)=O)C2)c2sc(C(F)(F)P(=O)(O)O)c(Br)c2c1
Label Class: Y
//
Compound: O=C(NC1CC(F)(F)C1)c1cc(OCCCC(F)(F)F)c2sc(C(F)(F)P(=O)(O)O)c(Br)c2c1
Label Class: Y
//
Compound: Cn1cnc(CNC(=O)c2ccc3sc(C(F)(F)P(=O)(O)O)c(Br)c3c2)c1
Label Class: N
//
Compound: N#Cc1c(C(F)(F)P(=O)(O)O)sc2ccc(C(=O)NCc3cccnn3)cc12
Label Class: N
//
Compound: O=P(O)(O)C(F)(F)c1sc2c(NCCCC(F)(F)F)cccc2c1Br
Label Class: N
//
Compound: CNC(=O)c1cc(OCCC(C)(F)F)c2sc(C(F)(F)P(=O)(O)O)c(Br)c2c1
Label Class: N
//
Compound: CS(=O)(=O)c1ccc(COc2cc(C(N)=O)cc3c(Br)c(C(F)(F)P(=O)(O)O)sc23)cc1Cl
Label Class: Y
//
Compound: CC(=O)N1CCc2ccc(NC(=O)c3ccc4sc(C(F)(F)P(=O)(O)O)c(Br)c4c3)cc21
Label Class: N

Data provenance is patent US20250059220A1.
